# System: CCRF-CEM leukemia
# assayExplanation: NCI-60 one-dose screen, 48 h
# runParameters: 10 µM unless noted
# Experimental: Growth inhibition of the CCRF-CEM human tumor cell line is measured as a screen for anti-cancer activity. Cells are grown in 96 well plates and exposed to the test compound for 48 hours. Compounds are tested at a single concentration, which is 10^-5 M for most compounds. The reported endpoint is percent growth (GI% or GIPRCNT), where numbers from 0 - 100% represent growth inhibition, and numbers from -100% - 0 represent cell death. For example, a value of 40 represents 60% growth inhibition. […]
Compounds without any hit were thinned out: in the full panel of roughly 83,000, 20% have a hit. The source made the active and inactive calls. How the source made its calls: active means growth percent below 10; inactive means the rest.
Choose the fitting class; nothing outside Y = active, N = inactive is accepted.

Dear colleague, could you share the recorded outcome for `O=c1[nH]c(CN2CCN(c3ccccc3F)CC2)nc2sc3c(c12)CCC3` when you have a moment? N

Dear colleague, could you share the recorded outcome for `O=C1CCCCN1CCCCC#Cc1ccccc1C#Cc1ccccn1` when you have a moment? N

Dear colleague, could you share the recorded outcome for CCC(c1ccc(OC)cc1)C(CC)c1ccc(O)c(CN2CCCC2)c1 (configuration not stated) when you have a moment? N

Dear colleague, could you share the recorded outcome for `COc1ccc(C(=O)c2cc(OC)c(OC)c(OC)c2)cc1/C=C/C(=O)c1ccc(OC)c(OC)c1` when you have a moment? Y

Dear colleague, could you share the recorded outcome for `CC(=O)n1cc([C@H]2CC[C@H](c3cn(C(C)=O)c4ccccc34)c3c2[nH]c2ccccc32)c2ccccc21` when you have a moment? N

Dear colleague, could you share the recorded outcome for `COc1cccc(/C=C/C(=O)c2sc(Nc3ccc(O)cc3)nc2C)c1` when you have a moment? N

Dear colleague, could you share the recorded outcome for CC1(C)OC2COC3(C(=O)O)OC(C)(C)OC3C2O1 (configuration not stated) when you have a moment? N

Dear colleague, could you share the recorded outcome for `COc1cccc2nc(Nc3ccc(NC(=O)c4ccc5ncccc5c4)cc3)ccc12` when you have a moment? N

Dear colleague, could you share the recorded outcome for `N#Cc1ncc(-c2ccc(F)c(F)c2F)c(NC2CCCCCC2)n1` when you have a moment? N

Dear colleague, could you share the recorded outcome for COc1ccc(C2CC(=O)Nc3c2c(C)nn3-c2nc3ccccc3[nH]2)cc1OC (configuration not stated) when you have a moment? Y

Dear colleague, could you share the recorded outcome for `CCCCCCOc1ccc(C2(Cl)c3ccccc3N(C)c3ccccc32)cc1` when you have a moment? N

Dear colleague, could you share the recorded outcome for O=C(CC(O)c1ccncc1)c1ccccc1 (configuration not stated) when you have a moment? N

Dear colleague, could you share the recorded outcome for `COc1cc(/C=C/C(=O)c2ccc(NC(=O)CN3CCN(c4cc5c(cc4F)c(=O)c(C(=O)O)cn5C4CC4)CC3)cc2)cc(OC)c1OC` when you have a moment? Y

Dear colleague, could you share the recorded outcome for `CC(=O)Nc1nc(C(=O)N2N=C(C)/C(=C/c3ccccc3)C2=O)cs1` when you have a moment? N

Dear colleague, could you share the recorded outcome for `COc1ccc(/C=C/C(=O)c2cccc(B(O)O)c2)cc1O` when you have a moment? N

Dear colleague, could you share the recorded outcome for `NC(=O)NNC(=O)c1ccccc1` when you have a moment? N

Dear colleague, could you share the recorded outcome for `O=C(Nc1ccc(F)cc1)c1cc([N+](=O)[O-])ccc1O` when you have a moment? N

Dear colleague, could you share the recorded outcome for `Cc1cccc(-n2c(C)nc3ccc(NC(=O)NCCCl)cc3c2=O)c1` when you have a moment? Y

Dear colleague, could you share the recorded outcome for N#CC1=C(N)OC2=C(C(=O)CCC2)C1c1ccco1 (configuration not stated) when you have a moment? N

Dear colleague, could you share the recorded outcome for `Cc1oc2ncnc(Nc3ccccc3)c2c1C(=O)NCCO` when you have a moment? N

Dear colleague, could you share the recorded outcome for `CCN(C(=O)c1cc2ncccc2[nH]1)[C@H]1CCC[C@@H](NCc2cccc(F)c2)C1` when you have a moment? N

Dear colleague, could you share the recorded outcome for COc1cc(C2C=C(C)N=C3SC=C(C)N32)cc(OC)c1OC (configuration not stated) when you have a moment? Y
